Species on record: Rattus norvegicus
assay_text: Open TG-GATES - Regimen: Daily Repeat
Format: toxicity, organism-based, Sprague-Dawley
Parameters: regimen Daily Repeat, gender Male, age 6 weeks
condition_context: in vivo, po, 0 mg/kg, 72 h, tissue Plasma, route gavage, dose level Control, time 3 day
measurement_type: TG
Include the unit right after the number.

CCCCC1C(=O)N(c2ccccc2)N(c2ccccc2)C1=O: 136.4 mg/dL
Nc1ccc(Cc2ccc(N)cc2)cc1: 108.2 mg/dL
CC(=O)[C@@]1(O)CC[C@H]2[C@@H]3C=C(Cl)C4=CC(=O)CC[C@]4(C)[C@H]3CC[C@@]21C: 114.8 mg/dL
CCN(CC)C(=S)SSC(=S)N(CC)CC: 91.6 mg/dL
CCCCNC(=O)NS(=O)(=O)c1ccc(C)cc1 [TOLBUTAMIDE]: 79.2 mg/dL

Exercise: I am curious: what TG value has been reported for CCO ?
Solution: 101 mg/dL

Exercise: Moving on to O=c1ccc2ccccc2o1
Solution: 58.6 mg/dL

Exercise: Moving on to NS(=O)(=O)c1cc(C(=O)O)c(NCc2ccco2)cc1Cl [FUROSEMIDE]
Solution: 130 mg/dL

Exercise: Moving on to CN(CCOc1ccc(CC2SC(=O)NC2=O)cc1)c1ccccn1.O=C(O)/C=C\C(=O)O (stereo not drawn) [ROSIGLITAZONE MALEATE]
Solution: 105.8 mg/dL

Exercise: Moving on to CN(C/C=C/C#CC(C)(C)C)Cc1cccc2ccccc12
Solution: 99.2 mg/dL

Exercise: Moving on to CC(S)C(=O)NCC(=O)O (stereo not drawn)
Solution: 86.6 mg/dL

Exercise: Moving on to COc1ccc([C@@H]2Sc3ccccc3N(CCN(C)C)C(=O)[C@@H]2OC(C)=O)cc1
Solution: 86 mg/dL

Exercise: Moving on to O=C(O)c1ccccc1Nc1ccccc1
Solution: 91.8 mg/dL
